Experiment: Cytotoxicity against Chlorocebus aethiops (African green monkey) Vero C1008 cells assessed as cell viability after 72 hr by MTT assay
Assay type: cell-based
Details: chlorocebus sabaeus
Test readout: CC50 at 72 h (µg/mL)
Just the number please, in µg/mL, no unit attached.

Q. Would you kindly share the measured CC50 at 72 h for `OC1(c2nnc(-c3cccnc3)[nH]2)CCCCC1` ?
A. 397

Q. Would you kindly share the measured CC50 at 72 h for `Cc1csc(-c2nnc(C3(O)CCCCC3)[nH]2)c1` ?
A. 373

Q. Would you kindly share the measured CC50 at 72 h for CC1CCC(O)(c2nnc(-c3ccncc3)[nH]2)CC1 (stereo unspecified) ?
A. 403

Q. Would you kindly share the measured CC50 at 72 h for `Oc1ccc(-c2nnc(C3(O)CCCC3)[nH]2)cc1` ?
A. 347

Q. Would you kindly share the measured CC50 at 72 h for Cc1nnc(C2(O)CC(C)CC(C)(C)C2)[nH]1 (stereo unspecified) ?
A. 380

Q. Would you kindly share the measured CC50 at 72 h for OC(c1nnc(-c2ccccc2)[nH]1)C1CC=CCC1 (stereo unspecified) ?
A. 358

Q. Would you kindly share the measured CC50 at 72 h for `OC1(c2nnc(-c3ccncc3)[nH]2)CCCCC1` ?
A. 412

Q. Would you kindly share the measured CC50 at 72 h for OC(c1nnc(-c2ccncc2)[nH]1)C1CC=CCC1 (stereo unspecified) ?
A. 388

Q. Would you kindly share the measured CC50 at 72 h for OC1CCC(C(O)c2nnc(-c3ccncc3)[nH]2)CC1O (stereo unspecified) ?
A. 429

Q. Would you kindly share the measured CC50 at 72 h for Cc1nnc(C(O)C2CC=CCC2)[nH]1 (stereo unspecified) ?
A. 318

Q. Would you kindly share the measured CC50 at 72 h for CC1CC(C)(C)CC(O)(c2nnc(-c3ccc(O)cc3)[nH]2)C1 (stereo unspecified) ?
A. 352

Q. Would you kindly share the measured CC50 at 72 h for `Oc1ccc(-c2nnc(C3(O)CCCCC3)[nH]2)cc1` ?
A. 340

Q. Would you kindly share the measured CC50 at 72 h for OC1CCC(C(O)c2nnc(-c3ccccc3)[nH]2)CC1O (stereo unspecified) ?
A. 429

Q. Would you kindly share the measured CC50 at 72 h for CC1CC(C)(C)CC(O)(c2nnc(-c3ccccc3)[nH]2)C1 (stereo unspecified) ?
A. 383

Q. Would you kindly share the measured CC50 at 72 h for CC1CC(C)(C)CC(O)(c2nnc(-c3ccncc3)[nH]2)C1 (stereo unspecified) ?
A. 414

Q. Would you kindly share the measured CC50 at 72 h for CC1CCC(O)(c2nnc(-c3ccccc3)[nH]2)CC1 (stereo unspecified) ?
A. 437
